Measured values drawn from ChEMBL document CHEMBL1156536 for this set.

System: Human immunodeficiency virus 1
measurementNotes: Antiviral activity against HIV1 in human MT4 cells assessed as inhibition of virus-induced cytopathogenicity by MTT assay
Type: functional, organism-based
assaySetup: Human immunodeficiency virus 1, MT4
Field: label. Allowed values: label 1 (EC50 < 900 nM) or label 0 (EC50 >= 900 nM).

Example cases with answers are listed next.
compound: CC(COc1ccccc1)OC(=S)Nc1ccc([N+](=O)[O-])cc1 (racemic)
group: label 0
--
compound: COc1ccc(CCOC(=S)Nc2ccc([N+](=O)[O-])cc2)cc1
group: label 0
--
compound: COc1ccc(NC(=S)OCCOc2ccccc2)cc1
group: label 0
--
compound: S=C(Nc1ccccc1)OC/C=C/c1ccccc1
group: label 0
--
compound: S=C(Nc1ccccc1)OCCCc1ccccc1
group: label 0

Query: Does the reported EC50 of Oc1ccccc1OCCOC(=S)Nc1ccccc1 stay below 900 nM?
Result: label 0

Query: Does the reported EC50 of Cc1ccc(NC(=S)OC(C)COc2ccccc2)cc1 (racemic) stay below 900 nM?
Result: label 0

Query: Does the reported EC50 of COc1ccccc1CCOC(=S)Nc1ccc(Cl)c(Cl)c1 stay below 900 nM?
Result: label 1

###

System: Human immunodeficiency virus 1
measurementNotes: Antiviral activity against HIV1 in human MT4 cells assessed as inhibition of virus-induced cytopathogenicity by MTT assay
Format: functional, organism-based
assaySetup: Human immunodeficiency virus 1, MT4
Field: label. Allowed values: criterion met (EC50 < 50 µM) or criterion not met (EC50 >= 50 µM).

Example cases with answers are listed next.
compound: CC(Cc1ccccc1)OC(=S)Nc1ccc([N+](=O)[O-])cc1 (racemic)
group: criterion met
--
compound: CC(OC(=S)Nc1ccc(Cl)cc1)c1cccc2ccccc12 (racemic)
group: criterion not met
--
compound: Cc1ccc(CCOC(=S)Nc2ccc([N+](=O)[O-])cc2)cc1
group: criterion met
--
compound: O=[N+]([O-])c1ccc(NC(=S)OCCc2ccccc2O)cc1
group: criterion met
--
compound: S=C(Nc1ccccc1)OCC1COc2ccccc2O1 (centres undefined)
group: criterion not met
--
compound: S=C(Nc1ccccc1)OCCSc1ccccc1
group: criterion met

Query: Does the reported EC50 of O=[N+]([O-])c1ccc(NC(=S)OCCOc2ccc(Br)cc2)cc1 stay below 50 µM?
Result: criterion not met

###

Each item that follows carries a reported EC50.
System: Human immunodeficiency virus 1
measurementNotes: Antiviral activity against HIV1 in human MT4 cells assessed as inhibition of virus-induced cytopathogenicity by MTT assay
Format: functional, organism-based
assaySetup: Human immunodeficiency virus 1, MT4
Output spec: scalar in µM, unitless text.

Examples with answers:
compound: Cc1ccccc1CCOC(=S)Nc1ccc([N+](=O)[O-])cc1
number: 0.7
//
compound: O=[N+]([O-])c1ccc(NC(=S)OCCc2cccc(O)c2)cc1
number: 3.7
//
compound: CC(COC(=S)Nc1ccc([N+](=O)[O-])cc1)c1ccccc1 (racemic)
number: 0.6
//
compound: O=[N+]([O-])c1ccc(NC(=S)OCCOc2ccccc2)cc1
number: 8.5
//
compound: Cc1ccc(NC(=S)OC(C)COc2ccccc2)cc1Cl (racemic)
number: 4
//
compound: COc1cccc(CCOC(=S)Nc2ccc(Cl)c(Cl)c2)c1
number: 1

Query: Give recorded EC50 with Human immunodeficiency virus 1 for the following compound: CC(OC(=S)Nc1ccc([N+](=O)[O-])cc1)c1ccc(Cl)cc1 (racemic)
Result: 7

Query: Give recorded EC50 with Human immunodeficiency virus 1 for the following compound: S=C(Nc1ccccc1)OC1Cc2ccccc2C1
Result: 12

Query: Give recorded EC50 with Human immunodeficiency virus 1 for the following compound: CC(OC(=S)Nc1ccc(Cl)cc1)c1ccc2ccccc2c1 (racemic)
Result: 26

Query: Give recorded EC50 with Human immunodeficiency virus 1 for the following compound: CC(COc1ccccc1)OC(=S)Nc1ccccc1 (racemic)
Result: 2

Query: Give recorded EC50 with Human immunodeficiency virus 1 for the following compound: O=[N+]([O-])c1ccc(NC(=S)OCCc2ccccc2Cl)cc1
Result: 0.4

Query: Give recorded EC50 with Human immunodeficiency virus 1 for the following compound: CC(OC(=S)Nc1ccccc1)c1ccc(Cl)cc1 (racemic)
Result: 5.3

Query: Give recorded EC50 with Human immunodeficiency virus 1 for the following compound: CC(COc1ccccc1)OC(=S)Nc1ccc(F)cc1 (racemic)
Result: 11
